- Assay target: hTLR9 (Homo sapiens)
- Sequence (Q9NR96 26-1032): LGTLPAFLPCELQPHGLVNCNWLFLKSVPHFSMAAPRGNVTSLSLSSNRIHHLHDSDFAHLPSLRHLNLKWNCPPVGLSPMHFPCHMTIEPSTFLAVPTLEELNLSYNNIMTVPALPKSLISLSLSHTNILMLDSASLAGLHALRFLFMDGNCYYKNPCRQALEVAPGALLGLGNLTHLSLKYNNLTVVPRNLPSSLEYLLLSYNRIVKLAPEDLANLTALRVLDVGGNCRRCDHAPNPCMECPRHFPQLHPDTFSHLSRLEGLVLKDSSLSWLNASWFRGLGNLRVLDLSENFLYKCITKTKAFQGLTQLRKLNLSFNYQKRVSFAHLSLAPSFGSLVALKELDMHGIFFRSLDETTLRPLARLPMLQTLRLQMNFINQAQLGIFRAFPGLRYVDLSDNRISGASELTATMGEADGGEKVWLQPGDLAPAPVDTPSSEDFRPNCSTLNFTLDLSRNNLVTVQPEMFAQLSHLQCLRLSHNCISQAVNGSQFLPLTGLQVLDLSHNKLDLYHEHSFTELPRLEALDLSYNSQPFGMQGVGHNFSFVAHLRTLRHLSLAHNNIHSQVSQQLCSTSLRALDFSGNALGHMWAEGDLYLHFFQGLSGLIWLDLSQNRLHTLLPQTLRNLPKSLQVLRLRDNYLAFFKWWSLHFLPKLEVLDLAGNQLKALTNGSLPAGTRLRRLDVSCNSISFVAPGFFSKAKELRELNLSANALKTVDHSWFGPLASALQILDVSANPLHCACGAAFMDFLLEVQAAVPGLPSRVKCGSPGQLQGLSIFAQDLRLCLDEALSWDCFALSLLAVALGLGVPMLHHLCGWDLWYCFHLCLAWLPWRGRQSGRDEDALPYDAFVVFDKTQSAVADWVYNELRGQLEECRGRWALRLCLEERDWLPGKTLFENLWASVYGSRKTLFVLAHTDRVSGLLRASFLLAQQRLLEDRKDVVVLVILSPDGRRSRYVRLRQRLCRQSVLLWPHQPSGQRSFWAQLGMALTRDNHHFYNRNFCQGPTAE
- Test protocol: HEK293-Blue-hTLR-9 cells assay (SEAP reporter, ODN2006 stimulation)
- Assay type: cell-based
- Parameters: host or cells: HEK293 (HEK-Blue hTLR9)
- Measurement parameters: HEK293-Blue-hTLR9 cells, ODN2006, 20 hrs; read-out: HEK/hTLR9 IC50
pIC50: −log10 of the molar value.
Measured parameter: pIC50

- Input smiles: "[2H]c1ccc2c(N3C[C@H](CN4CCN(c5ccc(N6C[C@@H](N)[C@H](OC)C6)nc5)CC4)O[C@H](C)C3)ccc(C#N)c2n1"
  Reading: 7.33

a = C[C@@H]1CN(c2ccc(C#N)c3ncccc23)C[C@H](CN2CCN(c3ccnc(N4CCN(C(=O)CN(C)C)CC4)n3)CC2)O1
b = [2H]c1ccc2c(N3C[C@H](CN4CCN(c5ccc(N6CC(C)(N)C6)nc5)CC4)O[C@H](C)C3)ccc(C#N)c2n1
[in] Which has the higher pIC50, a or b ? State the label of the item chosen.
[out] a
(a: 7.14, b: 6.85)
